Provenance of the data: patent US20050282743A1

SYSTEM_TESTED: T1, GST-SYNTENIN PDZ domain 1 (Homo sapiens (Human)), O00560
T1 chain: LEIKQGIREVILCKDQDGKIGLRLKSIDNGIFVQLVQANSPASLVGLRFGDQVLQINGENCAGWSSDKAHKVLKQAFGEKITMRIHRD
ASSAY_PROTOCOL: G' assay; note: key of the grades not given here
Below, each entry is listed with its recorded Classification.
A number alone suffices; assume A450 class.

Query :: Entry KTMPAAMFRLLTGQETPLYI (modifications not checked) [MINT-2] has what Classification?
Result :: 2

Query :: Repeat for the following binder: ELLQFCRTPNPALKNGQYWV (modifications not checked) [CSPG4 (chondroitin sulfae proteoglycan 4, melanoma-associated)]
Result :: 2

Query :: Next binder: KTMPAAMYRLLTAQEQPVYI (modifications not checked) [MINT-1]
Result :: 3

Next:
Query :: Please look up its Classification: ILNSIQVMRAQMNQIQSVEV (modifications not checked) [ephrin B2]
Result :: 1
